Where do these numbers come from? They come from patent EP4772193A1.

Kindly supply the reported Relative binding activity values for the records listed here.
# TEST_SYSTEM: T1, recombinant human soluble gpNMB (recombinant human gpNMB-FLAG-His) (human, UniProt Q14956 23-498)
# T1 sequence: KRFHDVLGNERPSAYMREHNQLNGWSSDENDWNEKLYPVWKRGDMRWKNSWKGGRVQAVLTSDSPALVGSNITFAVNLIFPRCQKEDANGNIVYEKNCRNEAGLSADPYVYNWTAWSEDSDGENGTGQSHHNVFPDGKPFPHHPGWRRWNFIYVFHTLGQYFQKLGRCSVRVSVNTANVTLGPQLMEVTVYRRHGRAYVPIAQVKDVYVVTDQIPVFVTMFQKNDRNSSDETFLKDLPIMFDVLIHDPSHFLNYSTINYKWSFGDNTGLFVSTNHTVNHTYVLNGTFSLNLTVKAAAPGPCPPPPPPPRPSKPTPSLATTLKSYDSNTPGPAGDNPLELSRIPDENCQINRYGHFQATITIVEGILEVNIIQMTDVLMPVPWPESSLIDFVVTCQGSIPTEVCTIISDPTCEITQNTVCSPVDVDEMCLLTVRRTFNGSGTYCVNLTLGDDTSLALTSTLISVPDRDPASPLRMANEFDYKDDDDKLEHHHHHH
# MEASUREMENT_DESCRIPTION: antigen ELISA, vs hGPN18-2_H2L3
Answers are plain numbers.

Below is a list of binders. For each, state its recorded Relative binding activity.
1. hGPN18-2_H2L3 VH L29A (antibody, V domains shown) VH: QVQLVQSGPGLVQPTQTLTLTCSFSGFSASTSVMGVGWIRQPSGKGLEWLADIWWDDDKDYNPSLKSRLTISKDTSKNQVVLTMTNMDTVDTATYYCARTYYSNYEYYGMDYWGQGTLVTVSS VL: DIVMTQSPDSLAVSLGERATINCRSSQTIILSNGNTYLEWYQQKPGQPPKLLIYKVSNRFSGVPDRFSGSGSGTDFTLTISSLQAEDVAVYYCFQGSHVPFTFGSGTKLEIKR
2. hGPN18-2_H2L3 VH K59A (antibody, V domains shown) VH: QVQLVQSGPGLVQPTQTLTLTCSFSGFSLSTSVMGVGWIRQPSGKGLEWLADIWWDDDADYNPSLKSRLTISKDTSKNQVVLTMTNMDTVDTATYYCARTYYSNYEYYGMDYWGQGTLVTVSS VL: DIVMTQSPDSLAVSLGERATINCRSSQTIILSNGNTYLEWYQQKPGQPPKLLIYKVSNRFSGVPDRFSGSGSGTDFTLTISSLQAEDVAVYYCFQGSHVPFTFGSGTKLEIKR
3. hGPN18-2_H2L3 VH G26A (antibody, V domains shown) VH: QVQLVQSGPGLVQPTQTLTLTCSFSAFSLSTSVMGVGWIRQPSGKGLEWLADIWWDDDKDYNPSLKSRLTISKDTSKNQVVLTMTNMDTVDTATYYCARTYYSNYEYYGMDYWGQGTLVTVSS VL: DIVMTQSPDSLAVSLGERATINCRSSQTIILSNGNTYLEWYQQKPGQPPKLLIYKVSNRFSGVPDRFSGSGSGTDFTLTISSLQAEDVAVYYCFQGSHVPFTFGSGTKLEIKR

Solution:
1. 0.82
2. 0.78
3. 0.84
